Molecular target: AMPK
Assay: AMPK activation, enzyme-linked immunosorbent assay
Format: biochemical
Settings: Table 3, AMPK activation, ELISA
pEC50: −log10 of the molar value.
Listed next: entries and their corresponding pEC50.
parameter: pEC50

O=S(=O)(NC1CCN(Cc2ccncc2)CC1)c1ccc(OC2CCN(c3ccc(C(F)(F)F)cc3)CC2)nc1 [Compound 51]: 6.30 to 7.00
O=S(=O)(NC1CCNCC1)c1ccc(OC2CCN(c3ccc(C(F)(F)F)cc3)CC2)nc1 [Compound 55]: 5.30 to 6.00
N#Cc1ccc(CN2CCC(Oc3ccc(S(=O)(=O)NC4CCN(Cc5ccncc5)CC4)cn3)CC2)cc1 [Compound 53]: 6.30 to 7.00
O=S(=O)(NC1CCN(Cc2ccc(C(F)(F)F)cc2)CC1)c1ccc(OC2CCN(c3ccc(C(F)(F)F)cc3)CC2)nc1 [Compound 58]: > 7.00
N#Cc1ccc(CN2CCC(NS(=O)(=O)c3ccc(OC4CCN(c5ccc(C(F)(F)F)cc5)CC4)nc3)CC2)cc1 [Compound 56]: 4.30 to 5.30
N#Cc1ccc(N2CCC(Oc3ccc(S(=O)(=O)NC4CCN(Cc5ccncc5)CC4)cn3)CC2)cc1 [Compound 52]: 6.30 to 7.00
N#Cc1cccc(CN2CCC(NS(=O)(=O)c3ccc(OC4CCN(c5ccc(C(F)(F)F)cc5)CC4)nc3)CC2)c1 [Compound 57]: 6.00 to 6.30
O=C(c1ccc(F)cc1)N1CCC(NS(=O)(=O)c2ccc(OC3CCN(c4ccc(C(F)(F)F)cc4)CC3)nc2)CC1 [Compound 60]: < 4.30
CC(C)(C)OC(=O)N1CCC(NS(=O)(=O)c2ccc(OC3CCN(c4ccc(C(F)(F)F)cc4)CC3)nc2)CC1 [Compound 54]: 5.30 to 6.00
O=S(=O)(NC1CCN(Cc2cccc(C(F)(F)F)c2)CC1)c1ccc(OC2CCN(c3ccc(C(F)(F)F)cc3)CC2)nc1 [Compound 59]: 6.30 to 7.00

src = patent US9174964B2
